Value source: patent US9346852B2

molecular target: human Y4 stable CHO clonal cells (Homo sapiens, UniProt P50391); experiment: NPY4 cAMP HTRF Agonist Assay; details: inhibitory cAMP assay, Gi activation by Y4 agonism, forskolin and IBMX, 30 minutes at room temperature
Sequence (P50391 whole entry): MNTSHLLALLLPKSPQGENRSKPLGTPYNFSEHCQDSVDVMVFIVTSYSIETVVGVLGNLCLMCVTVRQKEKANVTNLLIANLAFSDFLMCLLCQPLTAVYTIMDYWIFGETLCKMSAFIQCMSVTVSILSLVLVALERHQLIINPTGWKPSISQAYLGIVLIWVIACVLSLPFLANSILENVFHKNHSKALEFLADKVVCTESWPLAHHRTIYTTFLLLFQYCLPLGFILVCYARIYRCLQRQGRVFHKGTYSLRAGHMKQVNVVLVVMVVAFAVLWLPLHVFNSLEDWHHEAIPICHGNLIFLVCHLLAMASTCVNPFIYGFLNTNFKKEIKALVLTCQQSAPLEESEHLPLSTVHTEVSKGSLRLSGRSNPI
experimental.endpoint: pEC50
Friendly reminder that pEC50 comes from taking -log10 of the concentration in mol/L.

Past entries and their recorded results:
# molecular.string, experimental.system, pEC50
measured = [
    ("COC(=O)[C@@H]1CCC[C@@H]2SCC[C@H](NC(=O)[C@H](CC[C@H](Cc3ccc(O)cc3)C(=O)N[C@H]3CCS[C@H]4CCC[C@@H](C(=O)OC)N4C3=O)Cc3ccc(O)cc3)C(=O)N21", "human Y4 stable CHO clonal cells (Homo sapiens, UniProt P50391)", 7.85),
    ("O=C(N[C@H]1CCCCN(c2ccccc2)C1=O)[C@H](CC[C@H](Cc1ccccc1)C(=O)N[C@H]1CCS[C@H]2CCCCN2C1=O)Cc1ccccc1", "human Y4 stable CHO clonal cells (Homo sapiens, UniProt P50391)", 6.57),
]

Alright, here's another molecule for you.
Ask: Please give the measured pEC50 for this molecule: COc1ccccc1N1CCCC[C@H](NC(=O)[C@H](CC[C@H](Cc2ccccc2)C(=O)N[C@H]2CCS[C@H]3CCC[C@@H](C#N)N3C2=O)Cc2ccccc2)C1=O
Result: 8.15
